Activity for assorted compounds
System: SK-N-MC
Experimental protocol: Inhibition of cellular iron uptake in human SK-N-MC cells assessed as iron uptake at 25 uM for 3 hrs at 37 degC relative to control
Assay type: functional
Set-up: scale not given: the % may be the effect or the level left
Field format: number, assumed %, no unit text.

As a guide, the following entries are already answered.
| Chemical smiles | Activity [%] |
| --- | --- |
| COc1ccc(/C(=N/NC(=S)Nc2ccccc2)c2cccc(C)n2)cc1OC | 58 |
| CCNC(=S)N/N=C(/c1ccc(OC)cc1)c1cccc(C)n1 | 14 |
| Cc1cccc(/C(=N\NC(=S)N(C)C)c2ccccc2)n1 | 14 |
| COc1ccc(/C(=N/NC(=S)N(C)C)c2cccc(C)n2)cc1OC | 14 |
| CCNC(=S)N/N=C(/c1ccccc1)c1cccc(C)n1 | 14 |

Now for a further compound.
# Activity (compound: `Cc1cccc(/C(=N\NC(N)=S)c2ccccc2)n1` ) is 14
